# target: GFP [GFP: P42212]
# run_description: SPR; GFP immobilised by EDC/NHS coupling (ProteOn XPR36, GLC chip, 5 ug/ml in 10 mM sodium acetate pH 5.0; or Biacore 8K, CM5 chip, 5 ug/ml, pH 5.5); nanobody as analyte; 20 mM Na-Hepes pH 7.4, 150 mM NaCl, 0.05% Tween 20; Langmuir binding model
readout: Kd (nM)

The examples below pair each entry with its known result.
# binder, units_symbol, value
rows = [
    ("LaG94-6 (VHH) VHH: QVQLVESGGGAVQAGGSLRLSCAASGLTFSLYTMGWFRQAPEKEPEFVAYISKSGDTTTYADSVKGRFTIGRDNAKSTVYLQMNSLKSEDTAVYYCAASIKREITPNSIYRGQGTQVTVS", "nM", 0.083),
    ("LaG94-9 (VHH) VHH: QVQLVESGGGLVQPGGSLRLSCAASGGTFDTHTMGWFRQAPGKQREFVSAIRLHGVGTYYADSVKGRFTISRENAKNTVHLQMNNLKPEDTAVYYCAADRNWSRATEKEEYDYWGQGTQVTVS", "nM", 0.021),
    ("LaG94-2 (VHH) VHH: DVQLVESGGALVQAGGSLRLSCEFSGGTFNLYGIGWFRQAPEQDHEFVAGVSRYGSTYESVSVKGRFTSSRDNAKNSAYLEMNTLKPEDTGVYTCAATVREQVPTNFGSYIYRGQGTQVTVS", "nM", 27),
    ("LaG94-3 (VHH) VHH: QVQLVESGGGLVQAGGSLRLSCTASGGTVSSSGMGWFRQSSGNDRDFVAFITPTGPTTWYEESVNSRFTVSRDNAKNTIYLQMKSLRPEDTAIYYCAAGNIGRDSRTYPYWGQGTQVTVS", "nM", 0.13),
]

1 = LaG94-4 (VHH) VHH: DVQLVESGGGLVQAGGSLRLSCAASGDTSSIHFWEWYRQAPGKQRELVATANNGDFTHLQDSVKGRFTISKDNAKSTVYLQMNDLKPEDTAVYLCYARSYSNSNFWGQGTQVTVS
2 = LaG94-8 (VHH) VHH: QVQLVESGGGLVQAGGSLRLSCAASGRTFMNYAMGWFRQAPGKGREFVASISWTGETSTYADFVKGRFTISRDNAKNTVYLQMDSLKPEDTAVYRCAAKRATDFDDTVREAAEADYWGQGTQVTVS
# input Which item exceeds the other in Kd, 1 or 2 ? Write down the label of the entry you select.
# output 1

Data provenance is paper PMC11401214.
